Tested on: ATP;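 further: ATP exposure 15 min at 22 °C before imaging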
ASSAY_DETAILS: switch fluorescence ratio, 500 uM ATP over buffer (Cy3 cluster intensity, sum of 5 cycles each) (fold (ratio)); higher = stronger signal-on switching upon ATP binding; sequences stand for … in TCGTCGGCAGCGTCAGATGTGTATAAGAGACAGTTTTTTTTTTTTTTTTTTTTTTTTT…TC
TEST_CONDITIONS: aptamer strand: ATP DNA aptamer (quencher-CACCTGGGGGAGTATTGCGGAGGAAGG + anchor), 100 nM annealed; ATP concentration: 500 uM
PROPERTY_LABEL: switch fluorescence ratio

Use these answered entries as a reference point.
Lookup: For the sequence TGGAGGGGAG , what switch fluorescence ratio is on record?
Found: 0.986

Lookup: For the sequence TTTTAATTGA , what switch fluorescence ratio is on record?
Found: 1.02

Lookup: For the sequence ACAGATTTAG , what switch fluorescence ratio is on record?
Found: 0.972

Lookup: For the sequence AGTGAGCAGC , what switch fluorescence ratio is on record?
Found: 1.04

Lookup: For the sequence ATATGGATTG , what switch fluorescence ratio is on record?
Found: 1

Lookup: For the sequence TTATTTGTTT , what switch fluorescence ratio is on record?
Found: 0.977

Lookup: For the sequence TATGGGAGTT , what switch fluorescence ratio is on record?
Found: 1

Lookup: For the sequence GGGTTGAAGG , what switch fluorescence ratio is on record?
Found: 0.988

Continuing:
Lookup: For the sequence ACATAAGTG , what switch fluorescence ratio is on record?
Found: 1.02

Lookup: For the sequence AGAGATTGTT , what switch fluorescence ratio is on record?
Found: 0.947

Lookup: For the sequence GTTGACTTAA , what switch fluorescence ratio is on record?
Found: 1.02

Lookup: For the sequence AGCAGTTCCG , what switch fluorescence ratio is on record?
Found: 1.02

Lookup: For the sequence GATGCGGTG , what switch fluorescence ratio is on record?
Found: 1

Lookup: For the sequence CCATGTCGTA , what switch fluorescence ratio is on record?
Found: 0.995

Lookup: For the sequence GGATTCAGGG , what switch fluorescence ratio is on record?
Found: 1.01

Lookup: For the sequence CATGTTGGTT , what switch fluorescence ratio is on record?
Found: 0.992

---

System: ATP;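 further: ATP exposure 15 min at 22 °C before imaging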
ASSAY_DETAILS: switch fluorescence ratio, 500 uM ATP over buffer (Cy3 cluster intensity, sum of 5 cycles each) (fold (ratio)); higher = stronger signal-on switching upon ATP binding; sequences stand for … in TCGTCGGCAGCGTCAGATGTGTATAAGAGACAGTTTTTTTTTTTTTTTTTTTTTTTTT…TC
TEST_CONDITIONS: aptamer strand: ATP DNA aptamer (quencher-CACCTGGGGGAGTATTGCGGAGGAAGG + anchor), 100 nM annealed; ATP concentration: 500 uM
Documented switch fluorescence ratio across a set of sequences
API note: the answer field is a bare number with no unit suffix.

Use these answered entries as a reference point.
Lookup: For the sequence TTAATAAACT , what switch fluorescence ratio is on record?
Found: 1.03

Lookup: For the sequence TTTATAAAAC , what switch fluorescence ratio is on record?
Found: 1.01

Lookup: For the sequence TTGGAGAGAA , what switch fluorescence ratio is on record?
Found: 0.974

Continuing:
Lookup: For the sequence AGTGATCAGG , what switch fluorescence ratio is on record?
Found: 1

Lookup: For the sequence TCATCAAGGG , what switch fluorescence ratio is on record?
Found: 0.965

Lookup: For the sequence GGTTCGACTG , what switch fluorescence ratio is on record?
Found: 0.951

Lookup: For the sequence AGATTCATGC , what switch fluorescence ratio is on record?
Found: 1.01

Lookup: For the sequence AGGCGTTGGT , what switch fluorescence ratio is on record?
Found: 1.05
